B1: TPR 5TU (parent)
chain: GGAUCUUCUCGAUCUAACAAAAAAGACAAAUCUGCCACAAAGCUUGAGAGCAUCUUCGGAUGCAGAGGCGGCAGCCUUCGGUGGCGCGAUAGCGCCAACGUUCUCAACUAUGACACGCAAAACGCGUGCUCCGUUGAAUGGAGUUUAUCAUG

# Variants of: B1
# method summary: polymerase ribozyme fitness, log enrichment relative to wild type (log ratio); higher = more active; in vitro selection for triplet polymerase activity
Fewer inactive variants are shown than the library holds.
observed property: polymerase ribozyme fitness (log ratio)
Number only, no unit.

For A41G U53A C85A , what is its reported polymerase ribozyme fitness (log ratio)?
-2.72

For A52G G83U U101A A115U , what is its reported polymerase ribozyme fitness (log ratio)?
-3.39

For U7G A47U U55A C57A C63U C95U , what is its reported polymerase ribozyme fitness (log ratio)?
-3.6

For A20C A60G , what is its reported polymerase ribozyme fitness (log ratio)?
-0.605

For A41C A49C , what is its reported polymerase ribozyme fitness (log ratio)?
-4.01

For A12C G62A A122U , what is its reported polymerase ribozyme fitness (log ratio)?
-0.923

For C36U G58U G94A C105U C125U U135C , what is its reported polymerase ribozyme fitness (log ratio)?
-3.89

For U15A A142C , what is its reported polymerase ribozyme fitness (log ratio)?
-0.894

For A39G G117C , what is its reported polymerase ribozyme fitness (log ratio)?
-1.91

For C76U G94A , what is its reported polymerase ribozyme fitness (log ratio)?
1.11

For G68A C85U , what is its reported polymerase ribozyme fitness (log ratio)?
-3.48
